Recorded values, source patent US20250154169A1.

Overview of reported pIC50 across a group of compounds:
# Test system: MYB mRNA
# method_notes: Splicing RT-qPCR assay, MYB canonical (CJ) and alternative (AJ) junction mRNA
# Type: cell-based, human
# condition_parameters: Homo sapiens, 24 h, A673 or K562 cells, 24 hours compound treatment, RT-qPCR; read-out: MYB CJ (IC50, decrease in canonical junction mRNA)
pIC50: −log10 of the molar value. Where a name gives a salt, the structure may show the parent alone.

// below: answered compounds
Cc1cn2cc(NC(=O)c3cc(F)c(N4CCNCC4)c4cn(C)nc34)cc(F)c2n1 [Compound 303]	6.00 to 7.00
Cc1cn2cc(NC(=O)c3ccc(N4CCNCC4)c4cn(CCO)nc34)cc(F)c2n1 [Compound 291, hydrochloride]	6.00 to 7.00
CCNC1CCN(c2ccc(C(=O)Nc3cc(F)c4nc(C)cn4c3)c3nn(CC)cc23)C1 (stereo not shown) [Compound 396]	6.00 to 7.00

Request: Look up pIC50 for this compound: COCCn1cc2c(N3CCNCC3)ccc(C(=O)Nc3cc(F)c4nc(C)cn4c3)c2n1 [Compound 292, hydrochloride]
Result: > 7.00

Request: Look up pIC50 for this compound: CCN(CC)C1CCN(c2ccc(C(=O)Nc3cc(F)c4nc(C)cn4c3)c3nn(CCOC)cc23)C1 (stereo not shown) [Compound 330]
Result: 6.00 to 7.00

Request: Look up pIC50 for this compound: COc1c(NC(=O)c2ccc(N3CCNCC3)c3cn(C)nc23)cc2cn(C)nc2c1F [Compound 315, hydrochloride]
Result: > 7.00

Request: Look up pIC50 for this compound: CCn1cc2c(N3CCC4(CC3)CCN4C)ccc(C(=O)Nc3cc(F)c4nc(C)cn4c3)c2n1 [Compound 401, 2,2,2-trifluoroacetate]
Result: > 7.00

====

Overview of reported pIC50 across a group of compounds:
# Tested on: Target C mRNA
# method_notes: Splicing RT-qPCR gene panel, Target C canonical junction (CJ) mRNA
# Format: cell-based, human
# condition_parameters: Homo sapiens, Tables 4A/4B, read-out: Target C (IC50, decrease in CJ mRNA, gene panel)
pIC50: −log10 of the molar value.

Cc1cn2cc(NC(=O)c3ccc(N4CC[C@@H](NC5CC5)C4)c4nc(C)nn34)cc(F)c2n1	< 5.00
Cc1cn2cc(NC(=O)c3ccc(N4CCC(NC5CC5)C4)c4cn(C)nc34)cc(F)c2n1 (stereo not shown)	< 5.00
CCn1cc2c(C3OCC(N)CO3)ccc(C(=O)Nc3cc(F)c4nc(C)cn4c3)c2n1 (stereo not shown)	5.00 to 6.00

Request: Look up pIC50 for this compound: Cc1cn2cc(NC(=O)c3ccc(C4CC(C)(C)NC(C)(C)C4)c4cn(C)nc34)cc(F)c2n1
Result: < 5.00

Request: Look up pIC50 for this compound: Cc1cn2cc(NC(=O)c3ccc(N4CCNCC4)c4nn(C)nc34)cc(F)c2n1
Result: 5.00 to 6.00

Request: Look up pIC50 for this compound: Cc1cn2cc(NC(=O)c3ccc(C4CCNCC4)c4cc(C)oc34)cc(F)c2n1
Result: 6.00 to 7.00

Request: Look up pIC50 for this compound: C=C(C)n1cc2c(N3CCNCC3)ccc(C(=O)Nc3cc(F)c4nc(C)cn4c3)c2n1
Result: 5.00 to 6.00

Request: Look up pIC50 for this compound: Cc1cn2cc(NC(=O)c3ccc(N4CCNCC4)c4cc(C)nn34)cc(F)c2n1
Result: 6.00 to 7.00

Request: Look up pIC50 for this compound: CNC1CCN(c2ccc(C(=O)Nc3cc(F)c4nc(C)cn4c3)c3nn(C)cc23)C1 (stereo in doubt) [Compound 387]
Result: < 5.00

Request: Look up pIC50 for this compound: Cc1cn2cc(NC(=O)c3ccc(N4CC[C@@H](NC5CC5)C4)c4cc(C)nn34)cc(F)c2n1
Result: < 5.00

====

# Tested on: Target C mRNA
# method_notes: Splicing RT-qPCR gene panel, Target C canonical junction (CJ) mRNA
# Type: cell-based, human
# condition_parameters: Homo sapiens, Tables 4A/4B, read-out: Target C (IC50, decrease in CJ mRNA, gene panel)
Where a name gives a salt, the structure may show the parent alone.
reported_endpoint: IC50

C=C(C)n1ncc2c(N3CCNCC3)ccc(C(=O)Nc3cc(F)c4nc(C)cn4c3)c21 [Compound 416]	> 10 µM
CNC1CCN(c2ccc(C(=O)Nc3cc(F)c4nc(C)cn4c3)c3nn(C)cc23)C1 (stereo not shown) [Compound 298, trifluoroacetic acid salt]	1 to 10 µM

Request: Look up IC50 for this compound: CCn1cc2c(N3C[C@@H](C)N[C@@H](C)C3)cc(F)c(C(=O)Nc3cc(F)c4nc(C)cn4c3)c2n1 [Compound 475, trifluoroacetic acid]
Result: 1 to 10 µM

Request: Look up IC50 for this compound: Cc1cn2nc(NC(=O)c3ccc(N4CCNCC4)c4cn(C)nc34)nc2c(C)n1 [Compound 253]
Result: > 10 µM

====

# Test system: Target C mRNA
# method_notes: Splicing RT-qPCR gene panel, Target C canonical junction (CJ) mRNA
# Format: cell-based, human
# condition_parameters: Homo sapiens, Tables 4A/4B, read-out: Target C (IC50, decrease in CJ mRNA, gene panel)
Counter-ions that a name gives are not always drawn.
Overview of reported IC50 across a group of compounds:

Request: Look up IC50 for this compound: Cc1cn2cc(NC(=O)c3ccc(N4CCNCC4)c4cn(C)nc34)cc(C#N)c2n1 [Compound 314, hydrochloride]
Result: > 10 µM

Request: Look up IC50 for this compound: CCOc1nc(NC(=O)c2ccc(N3CC[C@@H](NC)C3)c3cn(C)nc23)cn2cc(C)nc12
Result: 1 to 10 µM

Request: Look up IC50 for this compound: CCCCn1cc2c(N3CCNCC3)ccc(C(=O)Nc3cc(F)c4nc(C)cn4c3)c2n1
Result: 1 to 10 µM

Request: Look up IC50 for this compound: Cc1cn2cc(NC(=O)c3c(F)cc(N4CC[C@@H](NC5CCC5)C4)c4csnc34)cc(F)c2n1
Result: 1 to 10 µM

====

# Tested on: HTT mRNA
# method_notes: Splicing RT-qPCR assay, HTT canonical (CJ) and alternative (AJ) junction mRNA
# Assay type: cell-based, human
# condition_parameters: Homo sapiens, A673 or K562 cells, 24 hours compound treatment, read-out: HTT AJ (AC50, increase in alternative junction mRNA)
Where a name gives a salt, the structure may show the parent alone.
reported_endpoint: AC50

// below: answered molecules
Cc1cc(NC(=O)c2ccc(N3CCNCC3)c3cn(C)nc23)cc2cn(C)nc12	1 to 10 µM
Cc1cn2cc(NC(=O)c3ccc(N4CCC(CN)CC4)c4cn(C)nc34)cc(F)c2n1	> 10 µM
Cc1cn2cc(NC(=O)c3ccc(C4CCNCC4)c4ccoc34)cc(F)c2n1	1 to 10 µM
CCn1cc2c(N3CCC(NCC(C)(C)O)CC3)ccc(C(=O)Nc3cc(F)c4nc(C)cn4c3)c2n1	0.1 to 1 µM

Request: Look up AC50 for this molecule: CNC1CCN(c2ccc(C(=O)Nc3cc(F)c4nc(C)cn4c3)c3nn(C)cc23)C1 (stereo in doubt) [Compound 388]
Result: 1 to 10 µM

Request: Look up AC50 for this molecule: Cc1cn2cc(NC(=O)c3ccc(N4CCNCC4)c4cc(C)oc34)c(C)cc2n1
Result: 1 to 10 µM

Request: Look up AC50 for this molecule: Cc1cn2cc(NC(=O)c3ccc(N4CCNCC4)c4cn(C)nc34)c(F)cc2n1
Result: 1 to 10 µM

Request: Look up AC50 for this molecule: Cc1cn2cc(NC(=O)c3ccc(C4CCNCC4)c4cc(C)oc34)cc(F)c2n1
Result: 1 to 10 µM

Request: Look up AC50 for this molecule: Cn1cc2cc(NC(=O)c3ccc(N4CCNCC4)c4cn(C)nc34)cc(F)c2n1 [Compound 319, hydrochloride]
Result: 1 to 10 µM

Request: Look up AC50 for this molecule: Cc1cn2cc(NC(=O)c3ccc(N4CCOCC4)c4cn(C)nc34)cc(F)c2n1
Result: 0.1 to 1 µM

Request: Look up AC50 for this molecule: COc1c(NC(=O)c2ccc(N3CCNCC3)c3oc(C)nc23)cn2cc(C)nc2c1F
Result: < 0.1 µM

Request: Look up AC50 for this molecule: CCn1cc2c(N3CC[C@@H](N(C)C)C3)cc(F)c(C(=O)Nc3cc(F)c4nc(C)cn4c3)c2n1
Result: 1 to 10 µM

Request: Look up AC50 for this molecule: Cc1cn2cc(NC(=O)c3ccc(N4CCNCC4)c4c[nH]nc34)cc(Cl)c2n1
Result: > 10 µM

Request: Look up AC50 for this molecule: Cc1cn2cc(NC(=O)c3ccc(N4CCNCC4)c4cn(C)nc34)cc(C(F)(F)F)c2n1
Result: 1 to 10 µM

Request: Look up AC50 for this molecule: CCC1CN(c2ccc(C(=O)Nc3cc(F)c4nc(C)cn4c3)c3oc(C)cc23)CCN1 (stereo not drawn)
Result: 1 to 10 µM

Request: Look up AC50 for this molecule: Cc1cn2cc(NC(=O)c3ccc(N4CC[C@H](N(C)C)C4)c4cn(C)nc34)cc(F)c2n1 (single isomer, unassigned)
Result: 1 to 10 µM

Request: Look up AC50 for this molecule: CCn1cc2c(N3CC[C@@H](N(C)C)C3)ccc(C(=O)Nc3cc(F)c4nc(C)cn4c3)c2n1
Result: > 10 µM

Request: Look up AC50 for this molecule: CNc1nc(NC(=O)c2ccc(N3CC[C@@H](NC)C3)c3cn(C)nc23)cn2cc(C)nc12
Result: > 10 µM

Request: Look up AC50 for this molecule: Cc1cn2cc(NC(=O)c3ccc(N4CCNCC4)c4cn(CC(F)(F)F)nc34)cc(F)c2n1
Result: > 10 µM

Request: Look up AC50 for this molecule: Cc1cn2cc(NC(=O)c3ccc(N(C)C4CC(C)(C)NC(C)(C)C4)c4cc(C)oc34)cc(F)c2n1
Result: > 10 µM

Request: Look up AC50 for this molecule: CCn1cc2c(N3CC[C@H](NC)C3)cc(F)c(C(=O)Nc3cc(F)c4nc(C)cn4c3)c2n1
Result: > 10 µM

Request: Look up AC50 for this molecule: CCn1cc2c(N3CC[C@@H](NC)C3)cc(O)c(C(=O)Nc3cc(F)c4nc(C)cn4c3)c2n1
Result: > 10 µM

Request: Look up AC50 for this molecule: Cc1cn2cc(NC(=O)c3ccc(C4CC(C)(C)NC(C)(C)C4)c4cn(C)nc34)cc(F)c2n1
Result: > 10 µM

Request: Look up AC50 for this molecule: CCn1cc2c(N3C[C@@H](C4CC4)N[C@@H](C)C3)ccc(C(=O)Nc3cc(F)c4nc(C)cn4c3)c2n1
Result: > 10 µM
